Quick list: inhibition at 100 µM per entry.
- ASSAY TARGET: hP2Y4 (Homo sapiens)
- Sequence (P51582 whole entry): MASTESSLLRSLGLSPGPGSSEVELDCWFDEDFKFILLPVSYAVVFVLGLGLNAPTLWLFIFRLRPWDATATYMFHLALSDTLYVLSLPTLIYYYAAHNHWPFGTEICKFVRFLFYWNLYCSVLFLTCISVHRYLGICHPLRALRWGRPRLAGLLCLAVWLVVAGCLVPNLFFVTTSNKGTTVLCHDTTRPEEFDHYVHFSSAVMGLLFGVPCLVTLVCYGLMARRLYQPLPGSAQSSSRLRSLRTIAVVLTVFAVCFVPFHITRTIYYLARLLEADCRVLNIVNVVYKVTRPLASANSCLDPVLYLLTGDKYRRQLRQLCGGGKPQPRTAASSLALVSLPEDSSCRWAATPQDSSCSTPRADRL
- RUN DESCRIPTION: Inhibition of UTP binding at hP2Y4
- SETTINGS: read-out: hP2Y4 % inhibition of UTP binding at 100 μM, n = 3, mean ± SEM
Output spec: scalar in %, unitless text.

CCOP(=O)(OCC)C(NC(=O)CCNC(=O)[C@H]1O[C@@H](n2ccc(=O)[nH]c2=O)C(O)C1O)P(=O)(OCC)OCC (stereo in doubt) ... 7
CCOP(=O)(OCC)C(NC(=O)CNC(=O)[C@H]1O[C@@H](n2ccc(=O)[nH]c2=O)C(O)C1O)P(=O)(OCC)OCC (stereo in doubt) ... 34
CCOP(=O)(OCC)C(NC(=O)CCCNC(=O)[C@H]1O[C@@H](n2ccc(=O)[nH]c2=O)C(O)C1O)P(=O)(OCC)OCC (stereo in doubt) ... 27

In the following, a different molecule is considered.
Exercise: Give the measured inhibition at 100 µM of CCOP(=O)(Cc1ccc(NC(=O)CCNC(=O)[C@H]2O[C@@H](n3ccc(=O)[nH]c3=O)C(O)C2O)cc1)OCC (stereo in doubt) .
Solution: 14
